# Test system: CP215
# method_notes: qHTS profiling for inhibitors of Plasmodium falciparum proliferation (AID 504749); note: nearly all actives have a fitted effect of over 60% in size
# setup_conditions: P. falciparum in erythrocytes, SYBR Green DNA, 72 h; series mostly up to 12.8 µM
Inconclusive results are not listed. Calls of active or inactive are those of the source. Calls come from the whole dose curve; as a rule, active = well fitted inhibition curve with a large enough effect; inconclusive = small, poorly fitted or top-dose-only effect; inactive = flat fitted curve, though single readings scatter.
Outcome field: choose from active, inactive

Req: For C[C@@H]1Cc2ccccc2N1NC(=O)c1ccc(Cl)c(S(N)=O)c1 (some centres undefined) , what call appears in the results of this test?
Resp: inactive

Req: Recorded test outcome, item NS(=O)(=O)c1cc2c(cc1C(F)(F)F)N[C@H](Cc1ccccc1)NS2(=O)=O
Resp: inactive

Req: Any idea what this test logged for CN[C@H]1[C@@H](O)[C@@H](NC)[C@@H]2O[C@@]3(O)C(=O)C[C@@H](C)O[C@H]3O[C@H]2[C@H]1O ?
Resp: inactive

Req: Dear colleague, could you share the recorded outcome for C[C@H]1CS(=O)(=O)CCN1/N=C\c1ccc([N+](=O)[O-])o1 when you have a moment?
Resp: inactive

Req: So what was the verdict on O=C(N/N=C\c1ccc([N+](=O)[O-])o1)c1ccc(O)cc1 in this test?
Resp: active

Req: Outcome logged for Nc1nc(NC2CC2)c2ncn([C@H]3C=C[C@@H](CO)C3)c2n1 in this assay:
Resp: inactive

Req: Test call for this compound, please: CN[C@H]1[C@H](O)[C@@H](O[C@@H]2[C@H](O)[C@@H](O[C@H]3OC(CN)=CC[C@H]3N)[C@@H](N)C[C@H]2N)OC[C@@]1(C)O
Resp: inactive

Req: Record lookup: outcome of this test for COc1ccc(CC(N)C(=O)NC2C(CO)OC(n3cnc4c(N(C)C)ncnc43)C2O)cc1 (centres undefined) ?
Resp: active

Req: Which outcome did this test record for the compound CN1C(=O)C[C@H](c2ccccc2)C1=O ?
Resp: inactive

====

# method_notes: S16 Schwann cell PMP22 intronic element beta-lactamase assay (AID 624044); note: nearly all actives have a fitted effect of over 15% in size
# setup_conditions: S16 rat Schwann cells, PMP22 element beta-lactamase FRET, 24 h; series mostly up to 17.1 µM
Inconclusive results are not listed. The source made the active and inactive calls. Calls come from the whole dose curve.
The reply should be one of these categories: active, inactive

Req: Please state the recorded outcome for this compound: CNC[C@H](O)c1ccc(OC(=O)C(C)(C)C)c(OC(=O)C(C)(C)C)c1
Resp: inactive

Req: Query: recorded result category for CC(=O)O[C@@]1(C(C)=O)CCC2C3CC(C)C4=CC(=O)CC[C@@]4(C)C3CC[C@]21C (some centres not stated) in this test
Resp: inactive

Req: Please share the test call associated with CC(=O)O[C@]1(C(C)=O)CC[C@@H]2[C@@H]3C=C(C)C4=CC(=O)CC[C@@]4(C)[C@H]3CC[C@]21C .
Resp: inactive

Req: For this compound, state the assay outcome: COc1ccc2cc1Oc1ccc(cc1)CC1c3c(cc4c(c3Oc3cc5c(cc3OC)CCN(C)C5C2)OCO4)CCN1C (configuration not stated)
Resp: inactive

Req: Can you look up the reported call for Cc1ncc([N+](=O)[O-])n1C[C@H](O)CCl for me?
Resp: inactive

Req: Assay outcome for OCC1O[C@H](OC2C(CO)O[C@@](O)(CO)C2O)C(O)C(O)C1O (some centres not stated) : what was it?
Resp: inactive

Req: How was C#C[C@@]1(O)CC[C@@H]2[C@@H]3CCC4=C(CCC(=O)C4)[C@H]3CC[C@]21C classified in this test?
Resp: inactive

Req: Look up the recorded call for C[C@@H]1Cc2ccccc2N1NC(=O)c1ccc(Cl)c(S(N)=O)c1 (some centres not stated) in this test.
Resp: inactive

Req: Record request — test call for C=CC1=C(C(=O)O)N2C(=O)[C@@H](NC(=O)/C(=N\OCC(=O)O)c3csc(N)n3)[C@@H]2SC1
Resp: inactive

Req: Assay result, entry CC(=O)N[C@H](CC(C)C)C(=O)O — outcome?
Resp: inactive

Req: How did this test come out for COc1cc2nc(N3CCN(C(=O)[C@@H]4COc5ccccc5O4)CC3)nc(N)c2cc1OC ?
Resp: inactive

Req: Which outcome was entered for the compound CC1C2CCC3C4CC=C5CC(N(C)C)CC[C@@]5(C)C4CC[C@@]32CN1C (some centres not stated) in this test?
Resp: inactive

Req: Outcome? COc1ccccc1OC[C@H](O)CO
Resp: inactive

Req: What classification did CC(C)(C)NC(=O)[C@@H]1CC[C@@H]2[C@@H]3CC[C@@H]4NC(=O)C=C[C@@]4(C)[C@H]3CC[C@]21C end up with in this test?
Resp: inactive

Req: Lab log entry: Cn1nnnc1SCC1=C(C(=O)O)N2C(=O)[C@@H](NC(=O)[C@@H](O)c3ccccc3)[C@@H]2SC1 — outcome as called in the assay?
Resp: inactive

Req: Could you kindly confirm the outcome this assay logged for CN1CCC[C@@H](CC2c3ccccc3Sc3ccccc32)C1 ?
Resp: inactive

Req: Any idea what this test logged for CCCCC[C@H](O)/C=C\[C@H]1[C@H](C/C=C\CCCC(=O)O)[C@@H](O)C[C@H]1O (tested in a mixture with another compound) ?
Resp: inactive

Req: Dear colleague, could you share the recorded outcome for CCN(CC)CCOC(=O)[C@@H](Cc1cccc2ccccc12)C[C@@H]1CCCO1 when you have a moment?
Resp: inactive

Req: How did this test come out for C[C@H](N[C@@H](C)COc1ccccc1)[C@H](O)c1ccc(O)cc1 ?
Resp: inactive

Req: What was the test verdict on CO[C@]12C(COC(N)=O)C3=C(C(=O)C(C)=C(N)C3=O)N1CC1NC12 (some centres not stated) ?
Resp: active

Req: # fetch the recorded call for O=C(N/N=C\c1ccc([N+](=O)[O-])o1)c1ccc(O)cc1 here
Resp: inactive

Req: For CCC(=O)O[C@@H]1[C@H](C)O[C@H](O[C@H]2[C@@H](N(C)C)[C@H](O)[C@@H](O[C@@H]3[C@@H](CC=O)C[C@@H](C)[C@@H](O)/C=C\C=C/C[C@@H](C)OC(=O)C[C@@H](OC(=O)CC)[C@H]3OC)O[C@H]2C)C[C@]1(C)O , what call appears in the results of this test?
Resp: inactive
